Each recorded value in this set is attributed to ChEMBL document CHEMBL4251542.

Assay: Ratio of drug level in brain to plasma in rat at 5 mg/kg, sc measured at 1 to 7 hrs
Format: ADME, organism-based
Details: brain and plasma, read-out: BPR
observedProperty: Kp
Reply with just the number.

Requested field: Kp. Item: Cc1cn(-c2ccc3n(c2=O)CCN(C[C@@]24C[C@@H]2C(C)(C)Oc2ccc(C(F)(F)F)cc24)C3=O)cn1
0.76

---

Assay: Cardiotoxicity in Wistar rat langendorff isolated heart model assessed as decrease in perfusion pressure perfused for 5 mins measured for 1 min
Type: toxicity, tissue-based
Let's look at some compounds and their measured EC50 at 5 min.
Provide only the numeric value, understood in nM.

{"columns": ["recordSmiles", "EC50 at 5 min [nM]"],
 "data": [
  ["Cc1cn(-c2ccc3n(c2=O)CCN([C@@H](C)C2=CC(C)(C)Oc4ccc(C(F)(F)F)cc42)C3=O)cn1", 576]
]}

Okay, next one:
Requested field: EC50 at 5 min. Item: Cc1cn(-c2ccc3n(c2=O)CCN([C@@H](C)C2=CC(C)(C)Oc4ccc(OC(F)(F)F)cc42)C3=O)cn1
1370

---

Tested on: MDR1 (P-gp), human;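 note: transwell permeability assay, efflux ratio of apparent permeability, compound tested at 2 µM over 5 h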
Test: in vitro
Conditions: dog, MDCK-MDR1
observedProperty: efflux ratio at 5 h, 2 µM
Reply with just the number.

See these solved cases before continuing.
{"columns": ["compound", "efflux ratio at 5 h, 2 µM"],
 "data": [
  ["Cc1cn(-c2ccc3n(c2=O)CCN(C[C@]24C[C@H]2COc2ccc(C(F)(F)F)cc24)C3=O)cn1", 1.9],
  ["Cc1cn(-c2ccc3n(c2=O)CCN([C@@H](C)C2=CC(C)(C)Oc4ccc(OC(F)(F)F)cc42)C3=O)cn1", 1.9],
  ["Cc1cn(-c2ccc3n(c2=O)CCN(C[C@@]24C[C@@H]2C(C)(C)Oc2ccc(OC(F)(F)F)cc24)C3=O)cn1", 2.1],
  ["Cc1cn(-c2ccc3n(c2=O)CCN(CC2=CC(C)(C)Oc4ccc(Cl)cc42)C3=O)cn1", 1.9],
  ["Cc1cn(-c2ccc3n(c2=O)CCN(CC2=CC(C)(C)Oc4ccc(C(F)(F)F)cc42)C3=O)cn1", 2],
  ["COc1ccc2c(c1)[C@]1(CN3CCn4c(ccc(-n5cnc(C)c5)c4=O)C3=O)C[C@@H]1CO2", 2.2]
]}

Requested field: efflux ratio at 5 h, 2 µM. Item: Cc1cn(-c2ccc3n(c2=O)CCN(C[C@@]24C[C@@H]2COc2ccc(C(F)(F)F)cc24)C3=O)cn1
2.4

Requested field: efflux ratio at 5 h, 2 µM. Item: Cc1cn(-c2ccc3n(c2=O)CCN(CC2CCOc4ccc(C(F)(F)F)cc42)C3=O)cn1 (stereo not drawn)
1.9

Requested field: efflux ratio at 5 h, 2 µM. Item: Cc1cn(-c2ccc3n(c2=O)CCN([C@@H](C)C2=CC(C)(C)Oc4ccc(C(F)(F)F)cc42)C3=O)cn1
1.9

Requested field: efflux ratio at 5 h, 2 µM. Item: Cc1cn(-c2ccc3n(c2=O)CCN([C@H](C)C2=CC(C)(C)Oc4ccc(C(F)(F)F)cc42)C3=O)cn1
1.8

Requested field: efflux ratio at 5 h, 2 µM. Item: Cc1cn(-c2ccc3n(c2=O)CCN(C[C@@]24C[C@@H]2COc2ccc(Cl)cc24)C3=O)cn1
1.8

Requested field: efflux ratio at 5 h, 2 µM. Item: Cc1cn(-c2ccc3n(c2=O)CCN(C[C@@]24C[C@@H]2COc2cc(C(F)(F)F)ccc24)C3=O)cn1
1.7

Requested field: efflux ratio at 5 h, 2 µM. Item: Cc1cn(-c2ccc3n(c2=O)CCN(CC2=CCOc4ccc(C(F)(F)F)cc42)C3=O)cn1
1.7

---

Assay: Fraction unbound in rat plasma
Type: ADME, cell-free
observedProperty: fraction unbound

Requested field: fraction unbound. Item: Cc1cn(-c2ccc3n(c2=O)CCN(C[C@@]24C[C@@H]2C(C)(C)Oc2ccc(C(F)(F)F)cc24)C3=O)cn1
0.018

---

Assay: Cardiotoxicity in Wistar rat langendorff isolated heart model assessed as decrease in contractility perfused for 5 mins measured for 1 min
Format: toxicity, tissue-based
observedProperty: IC50 at 5 min (nM)
Provide only the numeric value, understood in nM.

{"columns": ["recordSmiles", "observedProperty", "val"],
 "data": [
  ["Cc1cn(-c2ccc3n(c2=O)CCN([C@@H](C)C2=CC(C)(C)Oc4ccc(OC(F)(F)F)cc42)C3=O)cn1", "IC50 at 5 min", 2480]
]}

Okay, next one:
Requested field: IC50 at 5 min. Item: Cc1cn(-c2ccc3n(c2=O)CCN([C@@H](C)C2=CC(C)(C)Oc4ccc(C(F)(F)F)cc42)C3=O)cn1
1360

---

Test: Oral bioavailability in rat at 5 mg/kg
Type: ADME, organism-based
Conditions: in vivo
observedProperty: bioavailability (%)
Provide only the numeric value, understood in %.

Requested field: bioavailability. Item: Cc1cn(-c2ccc3n(c2=O)CCN(C[C@@]24C[C@@H]2C(C)(C)Oc2ccc(C(F)(F)F)cc24)C3=O)cn1
67

---

Assay: Clearance in rat at 1 mg/kg, iv
Assay type: ADME, organism-based
Conditions: in vivo
observedProperty: clearance
The answer should read as a number with its unit following.

Requested field: clearance. Item: Cc1cn(-c2ccc3n(c2=O)CCN(C[C@@]24C[C@@H]2C(C)(C)Oc2ccc(C(F)(F)F)cc24)C3=O)cn1
26.4 mL/min/kg

---

Biological target: Gamma-secretase
Test: Modulation of gamma-secretase (unknown origin) expressed in CHO cells co-expressing human wild type APP assessed as reduction in amyloid beta 42 levels after 24 hrs by ELISA
Let's look at some compounds and their measured IC50.
The answer should read as a number with its unit following.

See these solved cases before continuing.
{"columns": ["compound", "testedOn", "observedProperty", "val"],
 "data": [
  ["COc1ccc2c(c1)[C@]1(CN3CCn4c(ccc(-n5cnc(C)c5)c4=O)C3=O)C[C@@H]1CO2", "Gamma-secretase", "IC50", "181 nM"],
  ["Cc1cn(-c2ccc3n(c2=O)CCN(C[C@@]24C[C@@H]2COc2ccc(C(F)(F)F)cc24)C3=O)cn1", "Gamma-secretase", "IC50", "5.6 nM"],
  ["Cc1cn(-c2ccc3n(c2=O)CCN(CC2CCOc4ccc(C(F)(F)F)cc42)C3=O)cn1 (stereo not drawn)", "Gamma-secretase", "IC50", "322 nM"],
  ["Cc1cn(-c2ccc3n(c2=O)CCN(C[C@@]24C[C@@H]2COc2cc(C(F)(F)F)ccc24)C3=O)cn1", "Gamma-secretase", "IC50", "52 nM"],
  ["Cc1cn(-c2ccc3n(c2=O)CCN(C[C@]24C[C@H]2COc2ccc(C(F)(F)F)cc24)C3=O)cn1", "Gamma-secretase", "IC50", "129 nM"]
]}

Requested field: IC50. Item: Cc1cn(-c2ccc3n(c2=O)CCN(C[C@@]24C[C@@H]2COc2ccc(Cl)cc24)C3=O)cn1
63 nM

Requested field: IC50. Item: Cc1cn(-c2ccc3n(c2=O)CCN([C@@H](C)C2=CC(C)(C)Oc4ccc(OC(F)(F)F)cc42)C3=O)cn1
6 nM

Requested field: IC50. Item: Cc1cn(-c2ccc3n(c2=O)CCN(C[C@@]24C[C@@H]2C(C)(C)Oc2ccc(OC(F)(F)F)cc24)C3=O)cn1
5.1 nM

Requested field: IC50. Item: Cc1cn(-c2ccc3n(c2=O)CCN(CC2=CCOc4ccc(C(F)(F)F)cc42)C3=O)cn1
30 nM

Requested field: IC50. Item: Cc1cn(-c2ccc3n(c2=O)CCN(CC2=CC(C)(C)Oc4ccc(C(F)(F)F)cc42)C3=O)cn1
13 nM

Requested field: IC50. Item: Cc1cn(-c2ccc3n(c2=O)CCN(CC2=CC(C)(C)Oc4ccc(Cl)cc42)C3=O)cn1
53 nM

Requested field: IC50. Item: Cc1cn(-c2ccc3n(c2=O)CCN([C@H](C)C2=CC(C)(C)Oc4ccc(C(F)(F)F)cc42)C3=O)cn1
801 nM

Requested field: IC50. Item: Cc1cn(-c2ccc3n(c2=O)CCN([C@@H](C)C2=CC(C)(C)Oc4ccc(C(F)(F)F)cc42)C3=O)cn1
4.9 nM

---

Experiment: Fraction unbound in rat brain
Assay type: ADME, tissue-based
observedProperty: fraction unbound

Requested field: fraction unbound. Item: Cc1cn(-c2ccc3n(c2=O)CCN(C[C@@]24C[C@@H]2C(C)(C)Oc2ccc(C(F)(F)F)cc24)C3=O)cn1
0.0054
